# Tested on: HL-60(TB) leukemia
# procedure_details: NCI-60 one-dose screen, 48 h (100 = growth as untreated, 0 = no growth, -100 = all killed)
# conditions: 10 µM unless noted
The panel holds about 83,000 compounds, 20% with a hit somewhere; the sample as a whole holds those more often.
Measured growth of individual entries

{"compound": "Cc1ccc(CNc2ccc3nc(CCC4CCCCC4)[nH]c3c2)cc1", "tgt": "HL-60(TB) leukemia", "unit_descriptor": "%", "growth": 14.8}
{"compound": "COC(OC)C1(c2ccccc2)NC(=O)NC1=O (stereo not drawn)", "tgt": "HL-60(TB) leukemia", "unit_descriptor": "%", "growth": 122}
{"compound": "COC(=O)C1CC(=O)N(C(=O)Nc2ccc(Cl)cc2Cl)C1 (stereo not drawn)", "tgt": "HL-60(TB) leukemia", "unit_descriptor": "%", "growth": 97.8}
{"compound": "CC(=O)ON=C1C=CC(=C(C#N)c2ccccc2)C=C1", "tgt": "HL-60(TB) leukemia", "unit_descriptor": "%", "growth": -10.5}
{"compound": "COc1cc(C2CC(C3C(=O)N(C)C(=O)N(C)C3=O)=NN2C=O)cc(OC)c1OC (stereo not drawn)", "tgt": "HL-60(TB) leukemia", "unit_descriptor": "%", "growth": 104}
{"compound": "CCOC(=O)CSSCC(=O)OCC", "tgt": "HL-60(TB) leukemia", "unit_descriptor": "%", "growth": 108}
{"compound": "COc1ccccc1N1CCCCC1", "tgt": "HL-60(TB) leukemia", "unit_descriptor": "%", "growth": 101}
{"compound": "O=C(CNC1CCCCC1)Nc1ccc(-c2nc3ccccc3s2)cc1", "tgt": "HL-60(TB) leukemia", "unit_descriptor": "%", "growth": 66.8}
{"compound": "COc1ccc(C2CC(c3ccc(Nc4nc(Nc5ccc(F)cc5)nc(Nc5ccc(F)cc5)n4)cc3)=NN2C(C)=O)cc1 (stereo not drawn)", "tgt": "HL-60(TB) leukemia", "unit_descriptor": "%", "growth": 17.1}
{"compound": "O=C1NC(=O)C(Cc2ccccc2)(Cc2ccccc2)N1", "tgt": "HL-60(TB) leukemia", "unit_descriptor": "%", "growth": 122}
{"compound": "Nc1c2c(c(O)c3c1=C(CO)C=N3)=NCCS2=O (stereo not drawn)", "tgt": "HL-60(TB) leukemia", "unit_descriptor": "%", "growth": -42.1}
{"compound": "CCCCC(CCCCCC(CCCC)C1NC(C)Cc2cc(OC)c(OC)cc21)C1NC(C)Cc2cc(OC)c(OC)cc21 (stereo not drawn)", "tgt": "HL-60(TB) leukemia", "unit_descriptor": "%", "growth": -79.7}
{"compound": "COc1cccc(-c2nc3sccn3c2-c2ccnc(NCCNS(=O)(=O)c3ccccc3)n2)c1", "tgt": "HL-60(TB) leukemia", "unit_descriptor": "%", "growth": 69.9}

###

# System: HL-60(TB) leukemia
# procedure_details: NCI-60 one-dose screen, 48 h
# conditions: 10 µM unless noted
The panel holds about 83,000 compounds, 20% with a hit somewhere; the sample as a whole holds those more often. The source made the active and inactive calls. The calls were made as follows: active = growth percent below 10; inactive = the rest.
Labels: active, inactive

{"compound": "O=C(O)CSCSCC(=O)O", "tgt": "HL-60(TB) leukemia", "assigned_category": "inactive"}
{"compound": "c1ccc2c3c([nH]c2c1)C(c1ccc(C2NCCc4c2[nH]c2ccccc42)cc1)NCC3 (stereo not drawn)", "tgt": "HL-60(TB) leukemia", "assigned_category": "active"}
{"compound": "CN(C)c1ccc(C2Nc3ccccc3-n3cccc32)cc1 (stereo not drawn)", "tgt": "HL-60(TB) leukemia", "assigned_category": "inactive"}
